- assay-explanation: Displacement of [3H]-R-PIA from adenosine A1 receptor (unknown origin) expressed in sheep striatum membranes after 2 hrs by scintillation counting analysis
pKd: −log10 of the molar value.
experimental-endpoint: pKd

- CCCC[C@H](NC(=O)[C@H]1CC[C@@H]2c3[nH]c4ccccc4c3CCN2C1)C(=O)N[C@@H](Cc1ccc(F)c(F)c1)C(=O)N[C@@H](CCCCN)C(N)=O: < 4.00

Now for the molecule whose pKd we want.
stdin: Can you share its pKd? I mean this molecule: `CCCC[C@H](NC(=O)[C@H]1CC[C@@H]2c3[nH]c4ccccc4c3CCN2C1)C(=O)N[C@@H](Cc1ccc(O)cc1)C(=O)N[C@@H](CCCCN)C(N)=O`
stdout: < 4.00
